# systemName: T1, FOXM1 DBD WT (GST fusion) (UniProt Q08050 235-327)
# T1 sequence: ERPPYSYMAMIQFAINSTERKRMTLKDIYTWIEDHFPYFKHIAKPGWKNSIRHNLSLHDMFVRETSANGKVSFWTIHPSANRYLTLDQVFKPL
# procedureSummary: fluorescence polarization; FP: 50 mM Tris-HCl pH 7.5, 5 mM MgCl2, 1 mM DTT, 2% glycerol; protein 80 nM-5 uM; temperature not stated
# details: protein: recombinant; tags: GST; label: 5' 6FAM on top strand; blunt
attributeMeasured: Kd (µM)
Give the value, in units of µM, as a plain number.

Which Kd reading was recorded for the binder FKH consensus 16-mer (dsDNA) DNA 1: AAACAAACAAACAATC DNA 2: GATTGTTTGTTTGTTT ?
1.1
